# ASSAY_EXPLANATION: Cytotoxicity, neutral red (NR) assay
# Format: cell-based, human
# ASSAY_CONDITIONS: human, MDA-MB-231 cells (breast adenocarcinoma); 48 h treatment, neutral red assay; read-out: Cytotoxicity (mM) in Cell Line MDA-MB-231, IC50
Give measured IC50 at 48 h for each item. Keep answers brief.

Ask: Requested read-out: IC50 at 48 h. Entry: O=C(O)c1cc(O)ccc1O [2,5-DHB, 2,5-dihydroxybenzoic acid]
Reply: 4.39 mM

Ask: Try the molecule O=C(O)c1cccc(O)c1O [2,3-DHB, 2,3-Dihydroxybenzoic acid]
Reply: 4.1 mM

Ask: Try the molecule O=C(O)c1c(O)cccc1O [2,6-DHB, 2,6-dihydroxybenzoic acid]
Reply: 3.97 mM

Ask: Try the molecule O=C(O)c1cc(O)cc(O)c1 [3,5-DHB, 3,5-dihydroxybenzoic acid]
Reply: > 5 mM

----------
# ASSAY_EXPLANATION: Cytotoxicity, neutral red (NR) assay
# Type: cell-based, human
# ASSAY_CONDITIONS: human; 48 h treatment, neutral red assay; read-out: Cytotoxicity (mM) in Cell Line MCF-7, IC50
MEASURE_NAME: IC50 at 48 h

Ask: Requested read-out: IC50 at 48 h. Entry: O=C(O)c1ccc(O)cc1O [2,4-DHB, 2,4-Dihydroxybenzoic acid]
Reply: > 5 mM

Ask: Try the compound O=C(O)c1cc(O)c(O)c(O)c1 [3,4,5-THB, 3,4,5-trihydroxybenzoic acid]
Reply: 0.44 mM

Ask: Try the compound O=C(O)c1ccc(O)c(O)c1 [3,4-DHB, 3,4-dihydroxybenzoic acid]
Reply: > 5 mM

----------
# ASSAY_EXPLANATION: Lipophilicity via RP-HPLC
# Format: physicochemical
# ASSAY_CONDITIONS: C18 column
# Source text: […]
MEASURE_NAME: log kw
Format: numeric value only, no unit, no commentary.

Ask: Requested read-out: log kw. Entry: O=C(O)c1c(O)cccc1O [2,6-DHB, 2,6-dihydroxybenzoic acid]
Reply: 2.99

Ask: Try the molecule O=C(O)c1cc(O)cc(O)c1 [3,5-DHB, 3,5-dihydroxybenzoic acid]
Reply: 2.56

Ask: Try the molecule O=C(O)c1ccc(O)c(O)c1 [3,4-DHB, 3,4-dihydroxybenzoic acid]
Reply: 2.32

Ask: Try the molecule O=C(O)c1cccc(O)c1O [2,3-DHB, 2,3-Dihydroxybenzoic acid]
Reply: 2.47

Ask: Try the molecule O=C(O)c1ccc(O)cc1O [2,4-DHB, 2,4-Dihydroxybenzoic acid]
Reply: 2.66

Ask: Try the molecule O=C(O)c1cc(O)c(O)c(O)c1 [3,4,5-THB, 3,4,5-trihydroxybenzoic acid]
Reply: 1.91

----------
# ASSAY_EXPLANATION: Lipophilicity via RP-HPLC
# Format: physicochemical
# ASSAY_CONDITIONS: IAM column
# Source text: […]
Give measured log kw for each item. Keep answers brief.

Ask: Requested read-out: log kw. Entry: O=C(O)c1c(O)cccc1O [2,6-DHB, 2,6-dihydroxybenzoic acid]
Reply: 1.31

Ask: Try the compound O=C(O)c1cc(O)c(O)c(O)c1 [3,4,5-THB, 3,4,5-trihydroxybenzoic acid]
Reply: 0.15

Ask: Try the compound O=C(O)c1ccc(O)c(O)c1 [3,4-DHB, 3,4-dihydroxybenzoic acid]
Reply: 0.44

Ask: Try the compound O=C(O)c1cc(O)cc(O)c1 [3,5-DHB, 3,5-dihydroxybenzoic acid]
Reply: 0.51

Ask: Try the compound O=C(O)c1ccc(O)cc1O [2,4-DHB, 2,4-Dihydroxybenzoic acid]
Reply: 1.14

Ask: Try the compound O=C(O)c1cccc(O)c1O [2,3-DHB, 2,3-Dihydroxybenzoic acid]
Reply: 2.17

Values compiled from paper PMC8466373.
